# ASSAYED SYSTEM: PKR(wt) (Homo sapiens, UniProt P30613)
# Sequence (P30613 whole entry): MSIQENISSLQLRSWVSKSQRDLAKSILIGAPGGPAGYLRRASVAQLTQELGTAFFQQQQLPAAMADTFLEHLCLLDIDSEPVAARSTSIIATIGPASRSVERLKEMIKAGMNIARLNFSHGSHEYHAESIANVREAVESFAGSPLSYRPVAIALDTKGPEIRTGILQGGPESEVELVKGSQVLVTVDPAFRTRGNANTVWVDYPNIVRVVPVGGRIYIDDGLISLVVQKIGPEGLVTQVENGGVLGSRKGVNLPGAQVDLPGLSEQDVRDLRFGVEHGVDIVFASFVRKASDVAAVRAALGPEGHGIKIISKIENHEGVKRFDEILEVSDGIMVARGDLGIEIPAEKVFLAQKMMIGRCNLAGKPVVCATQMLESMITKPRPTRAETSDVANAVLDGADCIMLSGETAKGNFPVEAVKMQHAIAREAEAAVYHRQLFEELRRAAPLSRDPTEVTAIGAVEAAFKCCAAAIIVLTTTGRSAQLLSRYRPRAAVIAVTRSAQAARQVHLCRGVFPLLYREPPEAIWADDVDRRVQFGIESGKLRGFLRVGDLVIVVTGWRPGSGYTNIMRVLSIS
# PROTOCOL NOTES: Luminescence Biochemical Assay (Kinase Glo Plus), wild type PKR
# RUN PARAMETERS: without FBP, read-out: G—AC50 LUM KGP woFBP AC50 μM gmean
QUANTITY MEASURED: AC50

O=C(CC1CCS(=O)(=O)CC1)N1CC2=C(C1)CN(S(=O)(=O)c1ccc3occc3c1)C2; 1 to 40 µM
O=C([C@H](O)c1ccccc1)N1CC2=C(C1)CN(S(=O)(=O)c1ccccn1)C2; ≤ 0.1 µM
CN1CCOc2ccc(S(=O)(=O)N3CC4=C(CN(C(=O)CC5CCOCC5)C4)C3)cc21; 1 to 40 µM
Cc1nn(C(C)C(=O)N2CC3=C(C2)CN(S(=O)(=O)c2ccc4occc4c2)C3)cc1Cl (stereo not drawn); 1 to 40 µM
CN1CCOc2ccc(S(=O)(=O)N3CC4=C(CN(C(=O)C5(c6cccc(F)c6)CC5)C4)C3)cc21; 1 to 40 µM
CC(=O)N1CCOc2ccc(S(=O)(=O)N3CC4=C(CN(C(=O)C(C)c5ccc(F)cc5)C4)C3)cc21 (stereo not drawn); 1 to 40 µM
